- methodNotes: Selectivity index, ratio of IC50 for human HL7702 cells to IC50 for human A549 cells
- Format: toxicity
What log(RatioIC50) was measured for each of the following?
Give bare numbers.

The following compounds have reported results that may help.
structure=COc1cc(/C=C2\CN(C(=O)C(C)C)C/C(=C\c3cc(OC)c(OC)c(OC)c3)C2=O)cc(OC)c1OC reading=1.18
structure=CCN1C/C(=C\c2cc(OC)c(OC)c(OC)c2)C(=O)/C(=C/c2cc(OC)c(OC)c(OC)c2)C1 reading=0.48
structure=COc1ccc(/C=C2\CNC/C(=C\c3ccc(OC)c(OC)c3)C2=O)cc1OC reading=0.72

## Input Item CCN1C/C(=C\c2ccc(OC)c(OC)c2)C(=O)/C(=C/c2ccc(OC)c(OC)c2)C1 has what recorded log(RatioIC50)?
## Output 0.43
